Origin of measurements: paper PMC4557804

subject of test: SphK2 (Homo sapiens, UniProt Q9NRA0)
Sequence (Q9NRA0 whole entry, species assumed): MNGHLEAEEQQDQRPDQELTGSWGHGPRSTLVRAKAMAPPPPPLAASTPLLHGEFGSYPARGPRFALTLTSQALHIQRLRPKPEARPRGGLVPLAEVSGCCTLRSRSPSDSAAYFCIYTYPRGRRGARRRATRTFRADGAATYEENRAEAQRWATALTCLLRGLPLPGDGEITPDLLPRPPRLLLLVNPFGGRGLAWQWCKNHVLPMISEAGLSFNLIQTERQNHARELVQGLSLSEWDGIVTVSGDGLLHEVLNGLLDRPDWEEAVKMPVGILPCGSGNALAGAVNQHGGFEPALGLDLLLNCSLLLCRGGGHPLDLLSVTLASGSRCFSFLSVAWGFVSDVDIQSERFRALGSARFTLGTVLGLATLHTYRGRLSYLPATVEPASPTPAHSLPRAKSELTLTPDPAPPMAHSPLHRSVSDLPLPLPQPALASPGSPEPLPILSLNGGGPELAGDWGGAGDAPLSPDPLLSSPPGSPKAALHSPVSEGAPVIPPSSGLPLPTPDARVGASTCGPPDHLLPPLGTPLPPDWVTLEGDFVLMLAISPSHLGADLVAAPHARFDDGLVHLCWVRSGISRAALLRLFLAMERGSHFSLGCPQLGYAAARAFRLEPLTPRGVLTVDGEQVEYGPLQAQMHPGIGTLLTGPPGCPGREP
condition description: screen at 1 μM
assay metric: inhibitory activity at SphK2

Worked examples follow.
1. CCCCCCCCc1ccc(-c2noc(CN(C)C(=N)N)n2)cc1.Cl [Compound 7b] ... inactive
2. CCCCCCCCCCc1ccc(NC(=O)[C@@H]2CCCN2C(=N)N)cc1.O=C(O)C(F)(F)F [Compound 29a] ... inactive
3. CCCCCCCCc1ccc(-c2noc([C@@H]3CCN(C(=N)N)C3)n2)cc1.Cl [Compound 20b] ... essentially inactive
4. CCCCCCCCCCc1ccc(NC(=O)[C@H]2CCCN2C(=N)N)cc1.O=C(O)C(F)(F)F [Compound 29b] ... inactive

QUERY: Reported inhibitory activity at SphK2, compound CCCCCCCCc1ccc(-c2noc(C3CN(C(=N)N)C3)n2)cc1.Cl [Compound 20a] : ____
RESULT: essentially inactive

====

subject of test: SphK1 (Homo sapiens, UniProt Q9NYA1)
Sequence (Q9NYA1 whole entry, species assumed): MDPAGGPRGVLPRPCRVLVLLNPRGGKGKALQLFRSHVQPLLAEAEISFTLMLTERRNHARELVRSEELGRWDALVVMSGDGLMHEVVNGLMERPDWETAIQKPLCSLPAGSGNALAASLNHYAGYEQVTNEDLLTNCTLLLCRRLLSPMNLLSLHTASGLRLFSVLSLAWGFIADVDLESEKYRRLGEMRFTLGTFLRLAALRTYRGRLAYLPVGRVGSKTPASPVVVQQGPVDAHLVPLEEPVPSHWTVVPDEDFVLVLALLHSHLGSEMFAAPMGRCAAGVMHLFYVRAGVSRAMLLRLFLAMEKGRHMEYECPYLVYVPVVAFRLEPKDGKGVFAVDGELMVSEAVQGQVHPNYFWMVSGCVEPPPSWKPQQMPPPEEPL
condition description: screen at 1 μM
assay metric: inhibitory activity at SphK1

Worked examples follow.
1. CCCCCCCCc1ccc(-c2noc([C@@H]3CCN(C(=N)N)C3)n2)cc1.Cl [Compound 20b] ... essentially inactive
2. CCCCCCCCCCc1ccc(NC(=O)[C@H]2CCCN2C(=N)N)cc1.O=C(O)C(F)(F)F [Compound 29b] ... inactive
3. CCCCCCCCc1ccc(-c2noc(CN(C)C(=N)N)n2)cc1.Cl ... inactive
4. CCCCCCCCc1ccc(-c2noc(C3CN(C(=N)N)C3)n2)cc1.Cl [Compound 20a] ... essentially inactive

Moving on to another compound below.
QUERY: Reported inhibitory activity at SphK1, compound CCCCCCCCCCc1ccc(NC(=O)[C@@H]2CCCN2C(=N)N)cc1.O=C(O)C(F)(F)F [Compound 29a] : ____
RESULT: inactive
